- Target or system: Nrf2-Keap1 complex (Homo sapiens)
- Sequence (Q14145 whole entry, one chain of several): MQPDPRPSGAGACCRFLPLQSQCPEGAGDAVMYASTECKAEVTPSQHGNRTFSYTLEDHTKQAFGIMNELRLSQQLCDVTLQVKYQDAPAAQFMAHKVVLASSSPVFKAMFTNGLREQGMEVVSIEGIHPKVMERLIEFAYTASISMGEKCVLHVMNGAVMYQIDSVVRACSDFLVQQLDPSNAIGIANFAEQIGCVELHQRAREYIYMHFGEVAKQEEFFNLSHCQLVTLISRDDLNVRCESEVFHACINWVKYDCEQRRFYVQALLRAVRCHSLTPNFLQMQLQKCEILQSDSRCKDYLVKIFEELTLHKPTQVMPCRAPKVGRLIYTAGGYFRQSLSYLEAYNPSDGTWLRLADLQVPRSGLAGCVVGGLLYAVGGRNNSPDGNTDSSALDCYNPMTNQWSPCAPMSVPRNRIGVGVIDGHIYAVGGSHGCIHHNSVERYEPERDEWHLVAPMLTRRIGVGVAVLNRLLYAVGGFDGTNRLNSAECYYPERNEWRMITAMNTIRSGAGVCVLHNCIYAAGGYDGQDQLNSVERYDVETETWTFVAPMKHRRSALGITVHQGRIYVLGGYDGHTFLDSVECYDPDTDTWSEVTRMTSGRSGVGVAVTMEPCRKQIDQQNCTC
- Procedure details: cell-based
- Assay type: cell-based
- Protocol conditions: 3 h, read-out: Activation 200 nL
# reported activation at 32 µM; entries follow
Write it as a number; the unit % goes unstated.

Solved cases below.
Cn1cnc([N+](=O)[O-])c1Sc1[nH]cnc2ncnc1-2 [AZATHIOPRINE, reference compound] ... 70
C[C@]12C=CC(=O)C=C1CC[C@@H]1[C@@H]2CC[C@]2(C)C(=O)CC[C@@H]12 ... 70

Q) Query activation at 32 µM for O=c1c(-c2ccc(O)cc2)coc2cc(O)cc(O)c12
A) 93

Q) Indicate its recorded activation at 32 µM; the molecule in question is COc1ccc(/C=C/C(=O)c2cc(O)ccc2O)cc1 [2′,5′-DIHYDROXY-4-METHOXYCHALCONE]
A) 20

Q) Specify reported activation at 32 µM for the molecule shown: CCCSc1ccc2nc(NC(=O)OC)[nH]c2c1 [ALBENDAZOLE, reference compound]
A) 272

Q) Let me know recorded activation at 32 µM for CC(=O)O[C@@H]1C[C@H]2C(C)(C)C(=O)CC[C@]2(C)[C@H]2CC[C@@]3(C)[C@H](c4ccoc4)OC(=O)[C@H]4O[C@]43[C@@]21C [DIHYDROGEDUNIN] , thanks.
A) 114

Q) Return activation at 32 µM for the following molecule: C[C@]12C=CC(=O)C=C1CC[C@@H]1[C@@H]2[C@@H](O)C[C@@]2(C)[C@H]1CC[C@]2(O)C(=O)CO [PREDNISOLONE, reference compound]
A) 53

Taken from patent US9200046B2.
